testSystem: Human immunodeficiency virus type 1 integrase (Human immunodeficiency virus 1)
assayComment: Inhibition of recombinant HIV1 integrase strand transfer activity
The source made the active and inactive calls. The rule behind the calls is not given here.
measuredAttribute: Activity

COc1ccc([C@@H]2CC(=O)C[C@H](c3ccccc3OC)C23C(=O)OC(C)(C)OC3=O)cc1O ... inactive
CC1(C)OC(=O)C2(C(=O)O1)[C@@H](c1ccco1)CC(=O)C[C@H]2c1ccc(Br)cc1 ... inactive
COc1ccc([C@@H]2CC(=O)C[C@H](c3ccco3)C23C(=O)OC(C)(C)OC3=O)c(C)c1 ... inactive
COc1ccc([C@@H]2CC(=O)C[C@H](c3ccco3)C23C(=O)OC(C)(C)OC3=O)cc1O ... inactive
CC1(C)OC(=O)C2(C(=O)O1)[C@@H](c1ccco1)CC(=O)C[C@H]2c1ccc(F)cc1 ... inactive

# input Endpoint output: Activity of `CC1(C)OC(=O)C2(C(=O)O1)[C@@H](c1ccco1)CC(=O)C[C@H]2c1ccccc1Cl` . Value?
# output inactive
